- Test system: Ipomoea hederaceae (IPOHE)
- ASSAY_SUMMARY: Pre-emergence biological efficacy, glasshouse, 1000 g/ha, evaluated after 13 days (100=total damage to plant; 0=no damage to plant)
- Format: in vivo
- CONDITIONS_USED: Ipomoea, 312 h, rate 1,000 g/ha, read-out: Percentage damage caused to weed species, pre-emergence, IPOHE
Entries and their measured pest or weed control at 1000 g/ha follow.
ENDPOINT_NAME: pest or weed control at 1000 g/ha (%)

INSERT INTO measurements (compound, u, assay_value) VALUES
  ('COC(=O)c1nc(C2CC2)nc2[nH]ccc12', '%', 20),
  ('CCCCOCCOC(=O)c1nc(-c2ccc(Cl)c(OC)c2F)nc2[nH]cc(C)c12', '%', 20),
  ('Cc1cc2c(C(=O)O)nc(C3CC3)nc2n1Cc1ccccc1[N+](=O)[O-]', '%', 0),
  ('CCCCOCC(C)OC(=O)c1nc(-c2ccc(Cl)c(OC)c2F)nc2[nH]cc(C)c12 (centres unmarked)', '%', 70),
  ('COC(=O)c1nc(-c2ccc(Cl)c(OC)c2F)nc2c1OCCN2C', '%', 0),
  ('CCCCCC(C)OC(=O)c1nc(-c2ccc(Cl)c(OC)c2F)nc2[nH]cc(C)c12 (centres unmarked)', '%', 0),
  ('COc1c(Cl)ccc(-c2nc3c(c(C(=O)O)n2)N[C@@H]2CCCC[C@H]2N3)c1F', '%', 0),
  ('COc1c(Cl)ccc(-c2nc(C(=O)O)c3cc(C)[nH]c3n2)c1F', '%', 0);

These measurements were taken from patent US20120202690A1.
